The origin of these recorded values is patent US11505811B2.

Assignment: determine reported Max. specific activity, natural substrate for the given molecules.
- test.details: pyruvate reductase activity, NADH absorption at 340 nm
- Type: biochemical
- reported.conditions: natural substrate of Ldh: pyruvate; purified enzyme, 37° C., pH 7
Give bare numbers, in µmol/mg/min.

molecule	display.unit	numeric.value
Gs-Ldh: (L)-lactate dehydrogenase of Geobacillus stearothermophilus, SEQ ID NO: 10 (protein, listed as Geobacillus sterarothermophillus) MKNNGGARVVVIGAGFVGASYVFALMNQGIADEIVLIDANESKAIGDAMDFNHGKVFAPKPVDIWHGDYDDCRDADLVVICAGANQKPGETRLDLVDKNIAIFRSIVESVMASGFQGLFLVATNPVDILTYATWKFSGLPHERVIGSGTILDTARFRFLLGEYFSVAPQNVHAYIIGEHGDTELPVWSQAYIGVMPIRKLVESKGEEAQKDLERIFVNVRDAAYQIIEKKGATYYGIAMGLARVTRAILHNENAILTVSAYLDGLYGERDVYIGVPAVINRNGIREVIEIELNDDEKNRFHHSAATLKSVLARAFTR	µmol/mg/min	87.7

Could I get Max. specific activity, natural substrate for every one of these entries?
1. Ec-LdhA: (D)-lactate dehydrogenase from Escherichia coli, SEQ ID NO: 4 (protein, listed as Escherichia coli) MKLAVYSTKQYDKKYLQQVNESFGFELEFFDFLLTEKTAKTANGCEAVCIFVNDDGSRPVLEELKKHGVKYIALRCAGFNNVDLDAAKELGLKVVRVPAYDPEAVAEHAIGMMMTLNRRIHRAYQRTRDANFSLEGLTGFTMYGKTAGVIGTGKIGVAMLRILKGFGMRLLAFDPYPSAAALELGVEYVDLPTLFSESDVISLHCPLTPENYHLLNEAAFEQMKNGVMIVNTSRGALIDSQAAIEALKNQKIGSLGMDVYENERDLFFEDKSNDVIQDDVFRRLSACHNVLFTGHQAFLTAEALTSISQTTLQNLSNLEKGETCPNELV
2. Ll-Ldh: (L)-lactate dehydrogenase of Lactococcus lactis, SEQ ID NO: 6 (protein, listed as Lactococcus lactis) MADKQRKKVILVGDGAVGSSYAFALVNQGIAQELGIVDLFKEKTQGDAEDLSHALAFTSPKKIYSADYSDASDADLVVLTSGAPQKPGETRLDLVEKNLRITKDVVTKIVASGFKGIFLVAANPVDILTYATWKFSGFPKNRVVGSGTSLDTARFRQALAEKVDVDARSIHAYIMGEHGDSEFAVWSHANVAGVKLEQWFQENDYLNEAEIVELFESVRDAAYSIIAKKGATFYGVAVALARITKAILDDEHAVLPVSVFQDGQYGVSDCYLGQPAVVGAEGVVNPIHIPLNDAEMQKMEASGAQLKAIIDEAFAKEEFASAVKN

Output:
1: 265; 2: 184
